Could you please report measured Ki for the items listed next?
Write down the numeric answer in nM and omit the unit.

[Q] // fetch Procathepsin L (Bos taurus, UniProt P25975) Ki for CC(C)(C)OC(=O)N[C@@H](Cc1cccc(-c2ccccc2)c1)C(=O)NCC#N
[A] 430

[Q] // fetch Procathepsin L (Bos taurus, UniProt P25975) Ki for CC(C)C[C@H](NC(=O)OC(C)(C)C)C(=O)NCC#N
[A] 1200

[Q] // fetch Procathepsin L (Bos taurus, UniProt P25975) Ki for CC(C)(C)OC(=O)N[C@@H](CCc1ccccc1)C(=O)NCC#N
[A] 9400

[Q] // fetch Procathepsin L (Bos taurus, UniProt P25975) Ki for N#CCNC(=O)[C@H](Cc1ccccc1)NC(=O)c1ccccc1
[A] 230

====

Biological target: Procathepsin L (Bos taurus)
Sequence (P25975 whole entry): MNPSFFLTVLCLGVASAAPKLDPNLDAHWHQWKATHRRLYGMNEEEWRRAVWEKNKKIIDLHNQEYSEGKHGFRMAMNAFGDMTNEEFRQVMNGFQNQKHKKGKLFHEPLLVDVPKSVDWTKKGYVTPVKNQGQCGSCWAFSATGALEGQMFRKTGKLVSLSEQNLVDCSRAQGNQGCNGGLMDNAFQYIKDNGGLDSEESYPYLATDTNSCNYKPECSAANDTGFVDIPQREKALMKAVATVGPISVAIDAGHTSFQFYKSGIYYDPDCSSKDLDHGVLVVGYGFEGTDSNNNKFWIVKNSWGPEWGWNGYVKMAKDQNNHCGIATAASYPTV
Test: Inhibitory activity against bovine cathepsin L using Z-Phe-Arg-NHMec substrate
Where a SMILES comes first, the peptide text is derived from it. The star is where a group is joined. Boc = CC(C)(C)OC(=O)*
The recorded Ki of each item maps onto one of these classes: class 1: < 0.3 µM; class 2: ≥ 0.3 µM and < 2 µM; class 3: ≥ 2 µM

[Q] # classify by Ki band: CC(C)(C)OC(=O)N[C@@H](CC1CC1)C(=O)NCC#N
[A] class 3

[Q] # classify by Ki band: CC(C)(C)OC(=O)N[C@@H](Cc1c(F)c(F)c(F)c(F)c1F)C(=O)NCC#N
[A] class 3

[Q] # classify by Ki band: CC(C)(C)OC(=O)N[C@@H](Cc1cccs1)C(=O)NCC#N
[A] class 2

[Q] # classify by Ki band: CC(C)(C)OC(=O)N[C@@H](Cc1ccc(O)cc1)C(=O)NCC#N
[A] class 2

[Q] # classify by Ki band: CC(C)(C)OC(=O)N[C@@H](Cc1ccc(F)cc1)C(=O)NCC#N
[A] class 2

[Q] # classify by Ki band: CC(C)(C)OC(=O)N[C@@H](Cc1ccccc1)C(=O)NCC=O (Boc-Phe-Gly-aldehyde)
[A] class 1

[Q] # classify by Ki band: N#CCNC(=O)CNC(=O)OCc1ccccc1
[A] class 3

[Q] # classify by Ki band: CC[C@H](NC(=O)OC(C)(C)C)C(=O)NCC#N
[A] class 3

[Q] # classify by Ki band: CC(C)(C)OC(=O)N[C@@H](Cc1cccc(Br)c1)C(=O)NCC#N
[A] class 1

[Q] # classify by Ki band: CC(C)(C)OC(=O)N[C@@H](Cc1csc2ccccc12)C(=O)NCC#N
[A] class 2

[Q] # classify by Ki band: CC[C@@H](C)[C@H](NC(=O)OC(C)(C)C)C(=O)NCC#N
[A] class 3

[Q] # classify by Ki band: CC(C)(C)OC(=O)N[C@@H](Cc1ccc(-c2ccccc2)cc1)C(=O)NCC#N
[A] class 2

[Q] # classify by Ki band: N#CCNC(=O)[C@H](Cc1ccccc1)NC(=O)OCc1ccccc1
[A] class 1

[Q] # classify by Ki band: CC(C)(C)OC(=O)N[C@@H](Cc1ccc(Br)cc1)C(=O)NCC#N
[A] class 2

[Q] # classify by Ki band: CC(=O)N[C@@H](Cc1ccccc1)C(=O)NCC#N
[A] class 3

[Q] # classify by Ki band: CC(C)(C)OC(=O)N[C@@H](Cc1cccc(F)c1)C(=O)NCC#N
[A] class 2

====

Protein target, amino acids: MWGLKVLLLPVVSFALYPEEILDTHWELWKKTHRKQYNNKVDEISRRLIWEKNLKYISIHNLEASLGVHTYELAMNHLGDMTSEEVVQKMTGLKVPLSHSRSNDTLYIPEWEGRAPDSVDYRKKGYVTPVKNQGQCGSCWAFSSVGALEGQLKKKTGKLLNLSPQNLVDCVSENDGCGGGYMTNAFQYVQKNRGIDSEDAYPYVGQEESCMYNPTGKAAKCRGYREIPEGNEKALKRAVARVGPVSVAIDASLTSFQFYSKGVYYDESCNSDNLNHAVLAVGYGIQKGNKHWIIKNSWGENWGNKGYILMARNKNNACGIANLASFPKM
pKi: −log10 of the molar value.
Cut-off 5 on pKi, inclusive. At or above means 1; below means 0.

[Q] Reported pKi at or above 5? CC(C)(C)OC(=O)N[C@@H](Cc1cccc(Br)c1)C(=O)NCC#N
[A] 1

[Q] Reported pKi at or above 5? CC(C)C[C@H](NC(=O)OC(C)(C)C)C(=O)NCC#N
[A] 1

[Q] Reported pKi at or above 5? CC(C)(C)OC(=O)N[C@@H](Cc1ccc(-c2ccccc2)cc1)C(=O)NCC#N
[A] 0

[Q] Reported pKi at or above 5? CC(C)(C)OC(=O)N[C@@H](Cc1ccccc1-c1ccccc1)C(=O)NCC#N
[A] 0

[Q] Reported pKi at or above 5? CN(CC#N)C(=O)[C@H](Cc1ccccc1)NC(=O)OC(C)(C)C
[A] 0

[Q] Reported pKi at or above 5? CC(C)(C)OC(=O)N[C@@H](Cc1c(F)c(F)c(F)c(F)c1F)C(=O)NCC#N
[A] 0

[Q] Reported pKi at or above 5? N#CCNC(=O)CNS(=O)(=O)c1ccc2ccccc2c1
[A] 0

[Q] Reported pKi at or above 5? CC(C)(C)OC(=O)N[C@@H](Cc1c[nH]c2ccccc12)C(=O)NCC#N
[A] 0

[Q] Reported pKi at or above 5? CC(C)(C)OC(=O)N[C@@H](COCc1ccccc1)C(=O)NCC#N
[A] 0

====

Measured pKi (Cathepsin S (Homo sapiens, UniProt P25774))
Notebook: values listed as pKi are -log10 of the concentration (mol/L).

[Q] // fetch Cathepsin S (Homo sapiens, UniProt P25774) pKi for CC(C)(C)OC(=O)N[C@@H](Cc1ccc(F)cc1)C(=O)NCC#N
[A] 6.23

[Q] // fetch Cathepsin S (Homo sapiens, UniProt P25774) pKi for CC(C)(C)OC(=O)N[C@@H](CC1CCCCC1)C(=O)NCC#N
[A] 7.36

[Q] // fetch Cathepsin S (Homo sapiens, UniProt P25774) pKi for CC(C)(C)OC(=O)N[C@@H](Cc1cccc2ccccc12)C(=O)NCC#N
[A] 5.89

[Q] // fetch Cathepsin S (Homo sapiens, UniProt P25774) pKi for CC(C)(C)OC(=O)N[C@@H](Cc1cccc(-c2ccccc2)c1)C(=O)NCC#N
[A] 6.57

[Q] // fetch Cathepsin S (Homo sapiens, UniProt P25774) pKi for CC(C)(C)OC(=O)N[C@@H](Cc1ccccc1F)C(=O)NCC#N
[A] 6.11

[Q] // fetch Cathepsin S (Homo sapiens, UniProt P25774) pKi for CCC[C@H](NC(=O)OC(C)(C)C)C(=O)NCC#N
[A] 6.05

[Q] // fetch Cathepsin S (Homo sapiens, UniProt P25774) pKi for CSCC[C@H](NC(=O)OC(C)(C)C)C(=O)NCC#N
[A] 6.18

[Q] // fetch Cathepsin S (Homo sapiens, UniProt P25774) pKi for CC(C)(C)OC(=O)N[C@H](Cc1ccccc1)C(=O)NCC#N
[A] 4.34

====

Biological target: UniProtKB P25774
Where a SMILES comes first, the peptide text is derived from it. The star is where a group is joined. Boc = CC(C)(C)OC(=O)*
RECORDED_ENDPOINT: pKi
Notebook: values listed as pKi are -log10 of the concentration (mol/L).

[Q] // fetch UniProtKB P25774 pKi for CC(C)[C@H](NC(=O)OC(C)(C)C)C(=O)NCC#N
[A] 5.21

[Q] // fetch UniProtKB P25774 pKi for CC(C)(C)OC(=O)N[C@@H](Cc1ccccc1)C(=O)NCC=O (Boc-Phe-Gly-aldehyde)
[A] 7.60

[Q] // fetch UniProtKB P25774 pKi for CC(C)(C)OC(=O)N[C@@H](CCc1ccccc1)C(=O)NCC#N
[A] 5.72

[Q] // fetch UniProtKB P25774 pKi for N#CCNC(=O)[C@H](Cc1ccccc1)NC(=O)OCc1ccccc1
[A] 6.29

====

Molecular target: Cathepsin K (Homo sapiens)
Experiment: Inhibitory activity against human cathepsin K using Z-Leu-Arg-NHMec substrate
Where a SMILES comes first, the peptide text is derived from it. The star is where a group is joined. Boc = CC(C)(C)OC(=O)*
RECORDED_ENDPOINT: Ki (nM)
Write down the numeric answer in nM and omit the unit.

[Q] // lookup Ki for N#CCNC(=O)[C@H](Cc1ccccc1)NC(=O)c1ccccc1
[A] 1500

[Q] // lookup Ki for CC(C)(C)OC(=O)N[C@@H](CC1CCCCC1)C(=O)NCC#N
[A] 5300

[Q] // lookup Ki for CC(C)(C)OC(=O)N[C@@H](Cc1csc2ccccc12)C(=O)NCC#N
[A] 34000

[Q] // lookup Ki for CC(C)(C)OC(=O)N[C@@H](Cc1ccccc1)C(=O)NCC#N
[A] 4100

[Q] // lookup Ki for CC(C)(C)OC(=O)N[C@@H](Cc1cccs1)C(=O)NCC#N
[A] 1200

[Q] // lookup Ki for CCC[C@H](NC(=O)OC(C)(C)C)C(=O)NCC#N
[A] 1100

[Q] // lookup Ki for CC(C)C[C@H](NC(=O)OCc1ccccc1)C(=O)NCC#N
[A] 35

[Q] // lookup Ki for CC(C)(C)OC(=O)N[C@@H](Cc1ccc(F)cc1)C(=O)NCC#N
[A] 13000

[Q] // lookup Ki for CC(C)(C)OC(=O)N[C@@H](Cc1ccccc1)C(=O)NCC=O (Boc-Phe-Gly-aldehyde)
[A] 74
